TARGET SYSTEM: human GcgR (Homo sapiens, UniProt P47871)
Sequence (P47871 26-477): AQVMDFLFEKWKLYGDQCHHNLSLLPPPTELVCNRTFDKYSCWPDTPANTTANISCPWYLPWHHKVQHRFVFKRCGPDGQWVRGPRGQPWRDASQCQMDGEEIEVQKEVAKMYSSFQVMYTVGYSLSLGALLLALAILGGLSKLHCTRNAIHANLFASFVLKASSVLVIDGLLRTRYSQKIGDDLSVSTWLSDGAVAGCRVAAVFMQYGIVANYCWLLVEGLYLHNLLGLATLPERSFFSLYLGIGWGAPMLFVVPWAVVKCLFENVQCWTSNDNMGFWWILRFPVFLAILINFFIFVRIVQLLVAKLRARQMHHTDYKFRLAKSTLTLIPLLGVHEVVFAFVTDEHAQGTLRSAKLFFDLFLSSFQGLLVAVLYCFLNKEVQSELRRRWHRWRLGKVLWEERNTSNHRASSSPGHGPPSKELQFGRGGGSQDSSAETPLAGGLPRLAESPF
TEST METHOD NOTES: Functional cAMP activity in the presence of 1% HSA
Format: cell-based
CONDITIONS: read-out: cAMP Rel EC50, hGcgR
Starred links: 1 amine or outer side, 2 acyl side, 3 side chain; linkers in the order of their positions; H or OH if unused. Non-standard residues stand in square brackets, D forms with d. Groups on a side chain read outwards from the residue. No end group written: not given here. *: point of attachment. C20 diacid = O=C(O)CCCCCCCCCCCCCCCCCCC(=O)*; C18 diacid = O=C(O)CCCCCCCCCCCCCCCCC(=O)*; Phe(4-CN) = N#Cc1ccc(C[C@H](N)C(=O)O)cc1; αMePhe(2-F) = C[C@](N)(Cc1ccccc1F)C(=O)O; γGlu = O=C(O)[C@H](CCC(=O)[*:2])N[*:1]; αMe4Pal = C[C@](N)(Cc1ccncc1)C(=O)O; αMeY = C[C@](N)(Cc1ccc(O)cc1)C(=O)O; 4Pal = N[C@@H](Cc1ccncc1)C(=O)O; αMeL = CC(C)C[C@](C)(N)C(=O)O; αMeS = C[C@](N)(CO)C(=O)O; Orn = NCCC[C@H](N)C(=O)O; AEEA = NCCOCCOCC(=O)O; Aib = CC(C)(N)C(=O)O
Property: pEC50; scope: individual substances
// pEC50 is dimensionless: -log10 of concentration (M)

Consider the reported pEC50 for these substances:
Tell me the measured pEC50 of H-Y[Aib]QGTFTSD[4Pal]SQ[αMeL]LDKK([AEEA-γGlu-γGlu-C18 diacid])AQ[αMe4Pal]AFIEYLIE[Aib]GPSSGAPPPSGS-NH2 [Example 860] , please.
6.25

Then H-Y[Aib]QGT[αMePhe(2-F)]TSD[Phe(4-CN)]SKLLDKIAQK([AEEA-γGlu-C20 diacid])AFIEYLIEGGPSSGAPPPSGS-NH2 [Example 363] ?
5.39

Then Y[Aib]QGT[αMePhe(2-F)]TSD[4Pal][αMeS]I[αMeL]LD[Orn]K([AEEA-γGlu-C18 diacid])AQ[Aib][Orn]FI[dE]YLIEGGPSSGEPPPSEG-NH2 [Example 463] ?
6.30

Then H-Y[Aib]QGT[αMePhe(2-F)]TSD[4Pal]SILLDKK([γGlu-γGlu-C18 diacid])AQ[Aib]AFIEYLEEGGPSSGAPPPSGEEE-NH2 [Example 611] ?
6.20

Then H-Y[Aib]QGTFTSD[4Pal]SK[αMeL]LDKK([AEEA-γGlu-C18 diacid])AQ[αMe4Pal]AFIEYLIE[Aib]GPSSGAPPPSGS-NH2 [Example 915] ?
6.76

Then H-Y[Aib]QGTFTSD[4Pal]S[Orn][αMeL]LDKK([AEEA-γGlu-C18 diacid])AQ[αMe4Pal]AFIE[αMe4Pal]LIEGGPSSGAPPPSGSEE-NH2 [Example 955] ?
6.44

Then H-Y[Aib]QGTFTSD[4Pal][αMeS]Q[αMeL]LD[Orn]K([dE-γGlu-C18 diacid])AQ[αMe4Pal]QFIE[αMeY]LIA[Aib]GPSSGAPPPSGGGE-NH2 [Example 1185] ?
6.69

Others:
Tell me the measured pEC50 of Y[Aib]QGT[αMePhe(2-F)]TSDYSKILDKIAQK([AEEA-γGlu-C20 diacid])AFIQYLIEGGPSSGEPPPSEG-NH2 [Example 354] , please.
5.84
